Tested on: K562
Test: Cytotoxicity against human K562 cells after 48 hrs by MTT colorimetric assay
Assay type: functional, cell-based
Details: K562, 48 h
Measured Attribute: IC50 (µg/mL)
Write the value in µg/mL as a bare number.

Consider the reported IC50 for these compounds:
* C=C1C(=O)[C@]23C[C@H]1CC[C@H]2[C@]12CO[C@@H](CC1=O)C(C)(C)[C@H]2[C@H](OC(=O)CCCl)C3=O | 8.88
* C=CC(=O)O[C@H]1[C@@H]2C(C)(C)C=CC(=O)[C@]23CO[C@]1(O)[C@@]12C[C@@H](CC[C@@H]31)C(=C)C2=O | 5.05
* C=C1C(=O)[C@]23C[C@H]1CC[C@H]2[C@@]12CO[C@@]3(O)[C@@H](OC(=O)CBr)[C@@H]1C(C)(C)C=CC2=O | 1.5
* C=C1C(=O)[C@]23C[C@H]1CC[C@H]2[C@@]12CO[C@@]3(O)C(=O)[C@@H]1C(C)(C)C=CC2=O | 4.94
* C=C1C(=O)[C@]23C[C@H]1CC[C@H]2[C@]12CO[C@@H](CC1=O)C(C)(C)[C@H]2[C@H](OC(=O)CBr)C3=O | 4.54
* C=C1C(=O)[C@]23C[C@H]1CC[C@H]2[C@]1(COC3=O)C(=O)C=CC(C)(C)[C@H]1C=O | 0.27
* C=C1C(=O)[C@]23C[C@H]1CC[C@H]2[C@]1(COC(C)=O)C(=O)C=CC(C)(C)[C@H]1[C@H](OC(C)=O)C3=O | 28.1
* C=C1C(=O)[C@]23C[C@H]1CC[C@H]2[C@@]12CO[C@@]3(O)[C@@H](OC(C)=O)[C@@H]1C(C)(C)C=CC2=O | 25

Return value of IC50 for input C=C1C(=O)[C@]23C[C@H]1CC[C@H]2[C@@]12CO[C@@]3(OC(C)=O)[C@@H](O)[C@@H]1C(C)(C)C=CC2=O , no commentary.
7.23

Using known records, supply IC50 for C=C1C(=O)[C@]23C[C@H]1CC[C@H]2[C@]12CO[C@@H](CC1=O)C(C)(C)[C@H]2[C@H](OC(C)=O)C3=O
19.3

Quick one: give measured IC50 for C=C1[C@@H]2CC[C@H]3[C@@]45CO[C@@](O)([C@@H](O)[C@@H]4C(C)(C)C=CC5=O)[C@]3(C2)[C@@H]1O
33.2

Annotate the compound C=C1C(=O)[C@]23C[C@H]1CC[C@H]2[C@]12CO[C@@H](CC1=O)C(C)(C)[C@H]2[C@H](O)C3=O with its measured IC50.
3.73

Tell us which IC50 value is on record for C=C1C(=O)[C@]23C[C@H]1CC[C@H]2[C@@]12CO[C@@]3(O)[C@@H](O)[C@@H]1C(C)(C)C=CC2=O
1.32

====

Test system: A549
Test: Cytotoxicity against human A549 cells after 48 hrs by MTT colorimetric assay
Format: functional, cell-based
Details: A549, 48 h
# maps each entry to its IC50

- C=C1[C@@H]2CC[C@H]3[C@@]45CO[C@@](O)([C@@H](O)[C@@H]4C(C)(C)C=C[C@@H]5O)[C@]3(C2)[C@@H]1O: > 100 µg/mL
- C=C1C(=O)[C@]23C[C@H]1CC[C@H]2[C@]12CO[C@@H](CC1=O)C(C)(C)[C@H]2[C@H](OC(=O)CCCl)C3=O: 20.3 µg/mL
- C=C(C(=O)O)[C@@H]1CC[C@@H]2[C@@H](C1)C(=O)[C@@H](O)[C@@H]1C(C)(C)[C@@H]3CC(=O)[C@@]21CO3: > 200 µg/mL
- C=CC(=O)O[C@H]1[C@@H]2C(C)(C)C=CC(=O)[C@]23CO[C@]1(O)[C@@]12C[C@@H](CC[C@@H]31)C(=C)C2=O: 33 µg/mL
- C=C1C(=O)[C@]23C[C@H]1CC[C@H]2[C@@]12CO[C@@]3(O)C(=O)[C@@H]1C(C)(C)C=CC2=O: 33.2 µg/mL
- C=C(C(=O)O)[C@@H]1CC[C@@H]2[C@@H](C1)C(=O)C(O)=C1C(C)(C)[C@@H]3CC(=O)[C@]12CO3: > 200 µg/mL
- C[C@H]1C(=O)[C@]23C[C@H]1CC[C@H]2[C@@]12CO[C@@]3(O)[C@@H](O)[C@@H]1C(C)(C)CCC2=O: > 100 µg/mL

Now consider the entry below.
GET IC50 where system = A549 and item = C=C1C(=O)[C@]23C[C@H]1CC[C@H]2[C@]12CO[C@@H](CC1=O)C(C)(C)[C@H]2[C@H](OC(C)=O)C3=O
10.1 µg/mL
